assay-summary: 14-day repeat-dose intranasal toxicity study with 14-day recovery in rats (Study 700041)
Assay type: in vivo, rat
setup-conditions: both sexes, Sprague Dawley, in vivo, inhaled or intranasal; 14-day intranasal, rat
reported-endpoint: NOAEL at 14 days (mg/kg)

>  <structure-as-smiles>
COc1ccc2[nH]cc(CCN(C)C)c2c1

>  <reported-endpoint>
NOAEL at 14 days

>  <measurement>
5

$$$$

====

assay-summary: Toxicokinetics, 14-day intranasal study in rats (Study 700041)
Type: in vivo
setup-conditions: male, Sprague Dawley, rat, plasma, inhaled or intranasal, 5 mg/kg/day, Day 1, Male

>  <structure-as-smiles>
COc1ccc2[nH]cc(CCN(C)C)c2c1

>  <Cmax / ng/mL>
191

$$$$
